# Tested on: tet operator sequence
# test.details: β-galactosidase activity of a tetracycline-regulated promoter in transformed E. coli with revTetR, in the presence and absence of anhydrotetracycline (atc)
# Assay type: cell-based, Escherichia coli
# experimental.setup: RevTetR isolate cultured in the absence of anhydrotetracycline (ATC)
What β-Galactosidase Activity, Cultured Without ATC was measured for each of the following?
I only need the number, thanks.

q: Could you tell me which β-Galactosidase Activity, Cultured Without ATC is on file for TetRrevAtc4-23: revTetR(BD) A50D L51V L52Q A54A L55L A61S (protein, Modified tetracycline repressor, revTetR(BD) A50D L51V L52Q A54A L55L A61S) MSRLDKSKVINSALELLNEVGIEGLTTRKLAQKLGVEQPTLYWHVKNKRDVQDALAVEILSRHHDYSLPAAGESWQSFLRNNAMSFRRALLRYRDGAKVHLGTRPDEKQYDTVETQLRFMTENGFSLRDGLYAISAVSHFTLGAVLEQQEHTAALTDRPAAPDENLPPLLREALQIMDSDDGEQAFLHGLESLIRGFEVQLTALLQIV ?
a: 105.95

q: β-Galactosidase Activity, Cultured Without ATC lookup needed for TetRrev96/99-15: revTetR(BD) G96P V99P (protein, Modified tetracycline repressor, revTetR(BD) G96P V99P) MSRLDKSKVINSALELLNEVGIEGLTTRKLAQKLGVEQPTLYWHVKNKRALLDALAVEILARHHDYSLPAAGESWQSFLRNNAMSFRRALLRYRDPAKPHLGTRPDEKQYDTVETQLRFMTENGFSLRDGLYAISAVSHFTLGAVLEQQEHTAALTDRPAAPDENLPPLLREALQIMDSDDGEQAFLHGLESLIRGFEVQLTALLQIV , thanks.
a: 110.413

q: Which value of β-Galactosidase Activity, Cultured Without ATC has been reported for TetRrev29/17: revTetR(BD) L17S E23D (protein, Modified tetracycline repressor, revTetR(BD) L17S E23D) MSRLDKSKVINSALELSNEVGIDGLTTRKLAQKLGVEQPTLYWHVKNKRALLDALAVEILARHHDYSLPAAGESWQSFLRNNAMSFRRALLRYRDGAKVHLGTRPDEKQYDTVETQLRFMTENGFSLRDGLYAISAVSHFTLGAVLEQQEHTAALTDRPAAPDENLPPLLREALQIMDSDDGEQAFLHGLESLIRGFEVQLTALLQIV in the records?
a: 44.6409

q: Quick check: β-Galactosidase Activity, Cultured Without ATC of TetRrevAtc4-2: revTetR(BD) R49G L55L V57V E58N R62L H63Q (protein, Modified tetracycline repressor, revTetR(BD) R49G L55L V57V E58N R62L H63Q) MSRLDKSKVINSALELLNEVGIEGLTTRKLAQKLGVEQPTLYWHVKNKGALLDALAVNILALQHDYSLPAAGESWQSFLRNNAMSFRRALLRYRDGAKVHLGTRPDEKQYDTVETQLRFMTENGFSLRDGLYAISAVSHFTLGAVLEQQEHTAALTDRPAAPDENLPPLLREALQIMDSDDGEQAFLHGLESLIRGFEVQLTALLQIV ?
a: 3.143

q: Suppose we examine the molecule TetRrev4/6-3: revTetR(BD) D95A V99G (protein, Modified tetracycline repressor, revTetR(BD) D95A V99G) MSRLDKSKVINSALELLNEVGIEGLTTRKLAQKLGVEQPTLYWHVKNKRALLDALAVEILARHHDYSLPAAGESWQSFLRNNAMSFRRALLRYRAGAKGHLGTRPDEKQYDTVETQLRFMTENGFSLRDGLYAISAVSHFTLGAVLEQQEHTAALTDRPAAPDENLPPLLREALQIMDSDDGEQAFLHGLESLIRGFEVQLTALLQIV ; what β-Galactosidase Activity, Cultured Without ATC value has been reported?
a: 69.291

q: Can you share its β-Galactosidase Activity, Cultured Without ATC? I mean this molecule: TetRrev04-4: revTetR(BD) G96E V113A (protein, Modified tetracycline repressor, revTetR(BD) G96E V113A) MSRLDKSKVINSALELLNEVGIEGLTTRKLAQKLGVEQPTLYWHVKNKRALLDALAVEILARHHDYSLPAAGESWQSFLRNNAMSFRRALLRYRDEAKVHLGTRPDEKQYDTAETQLRFMTENGFSLRDGLYAISAVSHFTLGAVLEQQEHTAALTDRPAAPDENLPPLLREALQIMDSDDGEQAFLHGLESLIRGFEVQLTALLQIV
a: 99.655

q: Find the recorded β-Galactosidase Activity, Cultured Without ATC belonging to TetRrev96/99-5: revTetR(BD) G96I V99K (protein, Modified tetracycline repressor, revTetR(BD) G96I V99K) MSRLDKSKVINSALELLNEVGIEGLTTRKLAQKLGVEQPTLYWHVKNKRALLDALAVEILARHHDYSLPAAGESWQSFLRNNAMSFRRALLRYRDIAKKHLGTRPDEKQYDTVETQLRFMTENGFSLRDGLYAISAVSHFTLGAVLEQQEHTAALTDRPAAPDENLPPLLREALQIMDSDDGEQAFLHGLESLIRGFEVQLTALLQIV and report it.
a: 57.8391

q: State the recorded β-Galactosidase Activity, Cultured Without ATC for this entry: TetRrevAF4/6: revTetR(BD) E15D L17I N18T E23G A54V D95A (protein, Modified tetracycline repressor, revTetR(BD) E15D L17I N18T E23G A54V D95A) MSRLDKSKVINSALDLITEVGIGGLTTRKLAQKLGVEQPTLYWHVKNKRALLDVLAVEILARHHDYSLPAAGESWQSFLRNNAMSFRRALLRYRAGAKVHLGTRPDEKQYDTVETQLRFMTENGFSLRDGLYAISAVSHFTLGAVLEQQEHTAALTDRPAAPDENLPPLLREALQIMDSDDGEQAFLHGLESLIRGFEVQLTALLQIV
a: 100.702

q: Any idea what β-Galactosidase Activity, Cultured Without ATC was measured for TetRrev22/5: revTetR(BD) E15V L17A E19D (protein, Modified tetracycline repressor, revTetR(BD) E15V L17A E19D) MSRLDKSKVINSALVLANDVGIEGLTTRKLAQKLGVEQPTLYWHVKNKRALLDALAVEILARHHDYSLPAAGESWQSFLRNNAMSFRRALLRYRDGAKVHLGTRPDEKQYDTVETQLRFMTENGFSLRDGLYAISAVSHFTLGAVLEQQEHTAALTDRPAAPDENLPPLLREALQIMDSDDGEQAFLHGLESLIRGFEVQLTALLQIV ?
a: 92.312
